# Tested system: Ba/F3-EGFR-D770_N771insSVD cells (Homo sapiens, UniProt P00533, DUP768-770, cells depend on it)
# Sequence (P00533 with tags, fused parts or gaps DUP768-770): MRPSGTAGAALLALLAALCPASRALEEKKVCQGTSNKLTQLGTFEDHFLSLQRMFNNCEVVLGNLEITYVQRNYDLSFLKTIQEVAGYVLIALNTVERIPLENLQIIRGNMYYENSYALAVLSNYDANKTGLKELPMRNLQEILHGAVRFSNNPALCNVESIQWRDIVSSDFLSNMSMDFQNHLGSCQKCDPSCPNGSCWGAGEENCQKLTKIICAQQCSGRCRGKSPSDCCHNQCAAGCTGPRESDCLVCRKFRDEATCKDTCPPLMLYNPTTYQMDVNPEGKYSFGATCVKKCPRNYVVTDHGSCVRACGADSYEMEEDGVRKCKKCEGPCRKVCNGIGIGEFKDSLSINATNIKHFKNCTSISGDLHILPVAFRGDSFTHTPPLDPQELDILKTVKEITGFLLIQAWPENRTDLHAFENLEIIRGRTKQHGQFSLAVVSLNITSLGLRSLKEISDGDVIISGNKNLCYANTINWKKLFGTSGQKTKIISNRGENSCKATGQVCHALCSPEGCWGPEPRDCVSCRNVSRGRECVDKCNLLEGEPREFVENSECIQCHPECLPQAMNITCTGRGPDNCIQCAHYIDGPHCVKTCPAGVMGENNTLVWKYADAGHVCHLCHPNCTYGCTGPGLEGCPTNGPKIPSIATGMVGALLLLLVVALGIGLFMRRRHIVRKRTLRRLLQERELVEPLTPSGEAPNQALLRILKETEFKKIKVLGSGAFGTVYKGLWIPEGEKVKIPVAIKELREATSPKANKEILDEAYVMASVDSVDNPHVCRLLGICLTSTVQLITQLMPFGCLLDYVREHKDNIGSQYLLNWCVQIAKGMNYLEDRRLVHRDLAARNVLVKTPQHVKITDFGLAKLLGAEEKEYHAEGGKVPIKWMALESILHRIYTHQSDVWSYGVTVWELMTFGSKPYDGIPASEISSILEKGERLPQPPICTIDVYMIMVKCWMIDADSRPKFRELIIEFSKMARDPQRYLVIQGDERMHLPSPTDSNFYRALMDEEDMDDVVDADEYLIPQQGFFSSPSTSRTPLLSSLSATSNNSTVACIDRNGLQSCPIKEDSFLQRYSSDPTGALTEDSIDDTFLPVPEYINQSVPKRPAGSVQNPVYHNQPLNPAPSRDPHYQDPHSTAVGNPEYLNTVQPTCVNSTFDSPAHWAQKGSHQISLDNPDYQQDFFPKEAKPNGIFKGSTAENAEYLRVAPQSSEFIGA
# Test protocol: Ba/F3 cell survival assay, EGFR D770_N771insSVD
# Assay type: cell-based
# Measurement context: Cell Titer-Glo, 48 h, without IL-3; Table 4; read-out: BA/F3 (insSVD) IC50
Observed property: GI50 (nM)
Just the number please, in nM, no unit attached.

Reference set, count: 6
[
  {
    "Compound": "Cc1c(Cl)cccc1Nc1c(-c2ccncc2OC[C@@H]2CCCO2)[nH]c2c1C(=O)NCC2C (single isomer, unassigned) [Example 59]",
    "Readout units": "nM",
    "GI50": 41.9
  },
  {
    "Compound": "CCc1c(Cl)cccc1Nc1c(-c2ccncc2OC[C@@H]2COCCO2)[nH]c2c1C(=O)N[C@H](C)C2",
    "Readout units": "nM",
    "GI50": 40.3
  },
  {
    "Compound": "COc1c(Cl)cccc1Nc1c(-c2ccncc2OCC(C)(C)OC)[nH]c2c1C(=O)NCC2CCO (stereo not shown) [Example 13]",
    "Readout units": "nM",
    "GI50": 35
  },
  {
    "Compound": "COc1c(F)cccc1Nc1c(-c2ccncc2OC[C@@H]2CCCO2)[nH]c2c1C(=O)NC(C)C2 (single isomer, unassigned) [Example 10]",
    "Readout units": "nM",
    "GI50": 31.7
  },
  {
    "Compound": "COc1c(Cl)cccc1Nc1c(-c2ccncc2OC[C@@H]2CCCO2)[nH]c2c1C(=O)NCC2CCO (single isomer, unassigned) [Example 17]",
    "Readout units": "nM",
    "GI50": 230
  },
  {
    "Compound": "COc1c(Cl)cccc1Nc1c(-c2ccncc2OC[C@@H]2CCCO2)[nH]c2c1C(=O)NCC2CCO (single isomer, unassigned) [Example 18]",
    "Readout units": "nM",
    "GI50": 26.4
  }
]

Query: May I ask what GI50 has been recorded for COc1c(Cl)cccc1Nc1c(-c2ccncc2OC[C@@H]2CCCO2)[nH]c2c1C(=O)NCC2CC=C(F)F (single isomer, unassigned) [Example 100] ?
Response: 58.9

Query: What value of GI50 has been recorded for this entry: COc1c(Cl)cccc1Nc1c(-c2ccncc2OC[C@@H]2CCCO2)[nH]c2c1C(=O)N[C@H]1CCC[C@@H]21
Response: 195

Query: Fill blank: measured GI50 of the compound COc1c(Cl)cccc1Nc1c(-c2ccncc2OC[C@@H]2CCO2)[nH]c2c1C(=O)N[C@H](C)C2 is ____.
Response: 86.4

Query: # query: GI50 of entry COc1c(Cl)cccc1Nc1c(-c2ccncc2OC[C@@H]2CCCO2)[nH]c2c1C(=O)NC(C)C2 (mixture of isomers)
Response: 28.5

Query: Tell me the measured GI50 of COc1c(Cl)cccc1Nc1c(-c2ccncc2OCC2COC(C)(C)CO2)[nH]c2c1C(=O)NCC2C (single isomer, unassigned) [Example 97] , please.
Response: 32.1
